Recorded values, source patent US11352349B2.

Target: Staphylococcus aureus Topo IV (Staphylococcus aureus, UniProt P0C1S7+P0C1U9)
Construct: purchased Inspiralis, Norwich, UK
Sequence (P0C1S7 whole entry): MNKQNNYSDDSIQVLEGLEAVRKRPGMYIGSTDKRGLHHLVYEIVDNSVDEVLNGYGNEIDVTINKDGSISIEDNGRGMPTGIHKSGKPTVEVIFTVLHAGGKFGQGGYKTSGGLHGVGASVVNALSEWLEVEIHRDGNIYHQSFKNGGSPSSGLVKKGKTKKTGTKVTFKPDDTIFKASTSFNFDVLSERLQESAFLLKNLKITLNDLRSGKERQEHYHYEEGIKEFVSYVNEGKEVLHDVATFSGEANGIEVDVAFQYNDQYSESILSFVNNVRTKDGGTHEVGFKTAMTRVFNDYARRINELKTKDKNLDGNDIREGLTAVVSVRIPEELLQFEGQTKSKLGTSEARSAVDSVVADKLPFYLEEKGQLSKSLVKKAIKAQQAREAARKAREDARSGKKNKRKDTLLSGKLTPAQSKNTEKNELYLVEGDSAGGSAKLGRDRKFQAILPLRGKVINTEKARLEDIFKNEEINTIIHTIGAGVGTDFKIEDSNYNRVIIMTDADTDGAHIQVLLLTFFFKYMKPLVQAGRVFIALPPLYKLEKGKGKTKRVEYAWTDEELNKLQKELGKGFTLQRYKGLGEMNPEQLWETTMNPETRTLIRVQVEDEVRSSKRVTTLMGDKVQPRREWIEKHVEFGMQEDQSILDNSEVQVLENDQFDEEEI
Sequence (P0C1U9 whole entry): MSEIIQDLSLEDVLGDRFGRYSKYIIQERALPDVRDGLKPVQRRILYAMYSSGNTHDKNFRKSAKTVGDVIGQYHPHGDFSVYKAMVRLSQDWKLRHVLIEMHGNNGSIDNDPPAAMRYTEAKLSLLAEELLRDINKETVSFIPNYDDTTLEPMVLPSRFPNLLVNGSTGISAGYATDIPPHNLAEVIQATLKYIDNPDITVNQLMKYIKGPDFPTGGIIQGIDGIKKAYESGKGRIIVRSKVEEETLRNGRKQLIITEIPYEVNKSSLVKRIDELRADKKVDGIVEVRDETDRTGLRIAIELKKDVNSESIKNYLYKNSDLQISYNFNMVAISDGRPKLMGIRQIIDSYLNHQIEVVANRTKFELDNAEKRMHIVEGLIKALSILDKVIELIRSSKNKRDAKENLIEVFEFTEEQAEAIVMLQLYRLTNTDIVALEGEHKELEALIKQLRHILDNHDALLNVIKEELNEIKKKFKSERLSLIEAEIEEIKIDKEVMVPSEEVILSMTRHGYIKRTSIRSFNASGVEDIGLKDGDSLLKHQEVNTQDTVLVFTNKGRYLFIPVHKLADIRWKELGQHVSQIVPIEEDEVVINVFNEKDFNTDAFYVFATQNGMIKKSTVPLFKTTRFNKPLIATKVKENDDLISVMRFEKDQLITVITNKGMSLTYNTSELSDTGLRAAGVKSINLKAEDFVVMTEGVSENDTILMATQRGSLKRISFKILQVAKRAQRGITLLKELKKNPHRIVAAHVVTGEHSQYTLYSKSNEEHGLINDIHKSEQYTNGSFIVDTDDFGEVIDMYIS
Assay: Staphylococcus aureus Topo IV decatenation assay
Format: biochemical
Conditions: S. aureus Topo IV decatenation; read-out: TopolV Decat IC50
Reported IC50 values follow for various compounds

Study these solved cases before continuing.
                                   compound    result
0  COc1ccc2nccc(CC[C@H]3OC[C@H](NCc4ccc(Cl)c(F)c4)CO3)c2c1 [AB-0030]  > 100 µM
1  COc1ccc2nccc(CC[C@H]3OC[C@H](NCc4ccc5c(n4)NC(=O)CS5)CO3)c2c1 [AB-0021]  > 100 µM
2  COc1ccc2ncc(F)c(C(O)C[C@H]3OC[C@H](NCc4cc5c(cn4)OCCC5)CO3)c2c1 (stereo partly shown) [AB-0020]   15.2 µM

Value lookup for IC50; key = COc1ccc2nccc(CC[C@H]3OC[C@H](NCc4ccc(F)c(Cl)c4)CO3)c2c1 [AB-0023]
> 100 µM

----------
Target: Staphylococcus aureus Topo IV (Staphylococcus aureus, UniProt P0C1S7+P0C1U9)
Construct: purchased Inspiralis, Norwich, UK
Experiment: Staphylococcus aureus Topo IV decatenation assay
Assay type: biochemical
Settings: S. aureus Topo IV decatenation; read-out: TopolV Decat IC50
TEST READOUT: IC50

>>> df
                            smiles_notation    result
0  COc1ccc2ncc(F)c(CC[C@H]3OC[C@H](NCc4cc5c(cn4)OCCC5)CO3)c2n1   5.33 µM
1  COc1ccc2nccc(CC[C@H]3OC[C@H](NCc4ccc5c(n4)NC(=O)CO5)CO3)c2c1  > 100 µM
2  COc1ccc2nccc(CC[C@H]3OC[C@H](NCc4cc5c(cn4)OCCO5)CO3)c2c1     50 µM
3  COc1ccc2nccc(CC[C@H]3OC[C@H](NCc4ccc5c(c4)NC(=O)CO5)CO3)c2c1  > 100 µM

Value lookup for IC50; key = COc1ccc2nccc(CC[C@H]3OC[C@H](NCc4ccc(C#N)cc4)CO3)c2c1
> 100 µM

Value lookup for IC50; key = COc1ccc2ncc(F)c(CC[C@H]3OC[C@H](NCc4ccc5c(n4)NC(=O)CS5)CO3)c2n1
> 100 µM

Value lookup for IC50; key = COc1ccc(CN[C@H]2CO[C@H](CCc3ccnc4ccc(OC)cc34)OC2)cc1
> 100 µM

Value lookup for IC50; key = COc1ccc2ncc(F)c(CC[C@H]3OC[C@H](NCc4ccc(F)c(F)c4)CO3)c2n1
> 100 µM

----------
System: S. aureus ATCC 29213
Experiment: MIC by broth microdilution (CLSI), quality control strain S. aureus ATCC 29213
Assay type: cell-based, Staphylococcus aureus
Conditions: Staphylococcus aureus, ATCC29213, S. aureus ATCC 29213; multiple values when multiple MIC assays were conducted
TEST READOUT: MIC

                                   compound        result
0  COc1ccc2nccc(CC[C@H]3OC[C@H](NCc4ccccc4C)CO3)c2c1 [AB-0032]    > 64 µg/mL
1  COc1ccc2ncc(F)c(CC[C@H]3OC[C@H](NCc4ccc5c(n4)NC(=O)CS5)CO3)c2n1 [AB-0059]   ≤ 0.5 µg/mL
2  COc1ccc2ncc(F)c(CC[C@H]3OC[C@H](NCc4cc5c(cn4)OCCC5)CO3)c2n1 [AB-0018]  ≤ 0.25 µg/mL
3  COc1ccc2ncc(F)c(C(O)C[C@H]3OC[C@H](NCc4ccc(Cl)c(Cl)c4)CO3)c2c1 (some centres unmarked) [AB-0019]  ≤ 0.25 µg/mL

Value lookup for MIC; key = COc1ccc2nccc(CC[C@H]3OC[C@H](NC(=O)c4ccc(Cl)c(Cl)c4)CO3)c2c1 [AB-0089]
≤ 0.5 µg/mL

Value lookup for MIC; key = COc1ccc2nccc(CC[C@H]3OC[C@H](NCc4ccccn4)CO3)c2c1 [AB-0048]
8 µg/mL

Value lookup for MIC; key = COc1ccc2nccc(CC[C@H]3OC[C@H](NC(=O)c4ccccc4)CO3)c2c1 [AB-0075]
16 µg/mL

Value lookup for MIC; key = COc1ccc2nccc(CC[C@H]3OC[C@H](NCc4cccc(C#N)c4)CO3)c2c1 [AB-0026]
64 µg/mL

Value lookup for MIC; key = COc1ccc2nccc(CC[C@H]3OC[C@H](NCc4ccc(OC(F)(F)F)cc4)CO3)c2c1 [AB-0081]
2 µg/mL
